- Test System: NSD2 [1-1365] (Homo sapiens (Human))
- Sequence (O96028 whole entry): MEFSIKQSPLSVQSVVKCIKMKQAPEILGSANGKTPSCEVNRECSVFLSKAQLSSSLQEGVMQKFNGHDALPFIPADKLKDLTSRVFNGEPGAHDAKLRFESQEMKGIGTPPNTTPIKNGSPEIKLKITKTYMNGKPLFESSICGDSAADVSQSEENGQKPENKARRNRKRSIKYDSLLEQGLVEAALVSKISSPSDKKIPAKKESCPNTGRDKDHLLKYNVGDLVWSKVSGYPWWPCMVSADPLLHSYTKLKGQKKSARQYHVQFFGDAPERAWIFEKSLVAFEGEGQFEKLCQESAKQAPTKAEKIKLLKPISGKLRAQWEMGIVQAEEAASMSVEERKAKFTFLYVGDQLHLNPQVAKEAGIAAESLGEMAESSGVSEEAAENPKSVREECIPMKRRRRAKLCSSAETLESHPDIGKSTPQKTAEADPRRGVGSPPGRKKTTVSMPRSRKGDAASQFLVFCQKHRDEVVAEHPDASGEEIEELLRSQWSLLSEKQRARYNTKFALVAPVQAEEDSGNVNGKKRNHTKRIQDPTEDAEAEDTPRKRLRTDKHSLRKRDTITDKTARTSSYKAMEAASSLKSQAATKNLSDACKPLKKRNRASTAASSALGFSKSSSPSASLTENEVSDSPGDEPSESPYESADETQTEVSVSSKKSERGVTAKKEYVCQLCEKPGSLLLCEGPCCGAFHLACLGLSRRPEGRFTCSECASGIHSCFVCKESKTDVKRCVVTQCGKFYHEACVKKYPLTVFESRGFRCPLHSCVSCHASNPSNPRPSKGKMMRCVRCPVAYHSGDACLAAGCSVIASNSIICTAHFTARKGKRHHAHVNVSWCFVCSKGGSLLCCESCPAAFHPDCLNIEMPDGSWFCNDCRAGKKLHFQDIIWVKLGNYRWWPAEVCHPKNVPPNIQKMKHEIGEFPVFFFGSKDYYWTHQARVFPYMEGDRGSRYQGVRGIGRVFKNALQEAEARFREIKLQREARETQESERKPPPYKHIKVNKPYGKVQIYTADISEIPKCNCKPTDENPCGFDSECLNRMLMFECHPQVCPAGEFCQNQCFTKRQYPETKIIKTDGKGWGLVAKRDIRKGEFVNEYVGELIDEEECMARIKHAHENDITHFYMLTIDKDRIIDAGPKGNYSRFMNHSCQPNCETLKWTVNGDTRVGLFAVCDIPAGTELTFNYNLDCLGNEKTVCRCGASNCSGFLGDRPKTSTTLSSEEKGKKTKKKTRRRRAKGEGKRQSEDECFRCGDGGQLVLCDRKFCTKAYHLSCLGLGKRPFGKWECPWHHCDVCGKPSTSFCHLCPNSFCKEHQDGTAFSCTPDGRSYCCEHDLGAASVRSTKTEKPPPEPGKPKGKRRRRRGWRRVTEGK
- Protocol Details: LC-MS/MS-based NSD2 enzymatic assay (SAH production)
- Assay type: biochemical
- Condition Notes: read-out: NSD2 IC50
The following compounds are shown together with reported IC50 values.

Some compounds with recorded IC50:
- Compound: "Nc1ncnc2c1ncn2Cc1cc(-c2ccc(F)cc2)ncc1N1CCC[C@](N)(c2ccc(F)c(C(F)F)n2)C1 [Example 218]"
  Test System: "NSD2 [1-1365] (Homo sapiens (Human))"
  IC50: "10 to 1000 nM"
- Compound: "Cn1cc(C2(N)CCCN(c3cnc(-c4ccc(F)c(F)c4)cc3Cn3cnc4c(N)ncnc43)C2)nn1 (centres unmarked) [Example 282]"
  Test System: "NSD2 [1-1365] (Homo sapiens (Human))"
  IC50: "10 to 1000 nM"
- Compound: "COc1ccc(Cl)nc1[C@@]1(N)CCCN(c2cnc(-c3ccc(F)c(F)c3)cc2Cn2cnc3c(N)ncnc32)C1 [Example 230]"
  Test System: "NSD2 [1-1365] (Homo sapiens (Human))"
  IC50: "10 to 1000 nM"
- Compound: "Nc1ncnc2c1ncn2Cc1cc(-c2ccc(F)c(F)c2)ncc1N1CCCC(N)(c2ccc(O)c(F)n2)C1 (centres unmarked) [Example 214]"
  Test System: "NSD2 [1-1365] (Homo sapiens (Human))"
  IC50: "10 to 1000 nM"
- Compound: "COc1ccc(-c2cc(Cn3cnc4c(N)ncnc43)c(N3CCC[C@](N)(c4cccc(Cl)n4)C3)cn2)cc1F [Example 213]"
  Test System: "NSD2 [1-1365] (Homo sapiens (Human))"
  IC50: "1 to 10 nM"

Read the entry Nc1ncnc2c1ncn2Cc1cc(-c2cc(F)c(F)cc2C(F)F)ncc1N1CCC[C@](N)([C@@H]2COCCO2)C1 [Example 291] and write its reported IC50.
10 to 1000 nM
